- Assay name: chemical genetic growth profiling, strain panel (AID 1159580);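 further: tested at 20 µM; growth read once vehicle control cultures reached saturation at 30 °C; 1 = growth at the plate median or of vehicle wells; lower values mean less growth of the strain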
- Experimental conditions: S. cerevisiae deletion strains, growth OD, locus YNL307C, strain MCK1
About 2,000 (36%) of roughly 5,500 compounds were called active. Not shown: some 18% with an inconclusive outcome. No stated cut-off is given here; in the data, active means normalized growth mostly below about 0.91 (no sharp cut-off); inconclusive means no clear call, values can overlap the other calls; inactive means mostly above about 0.92. Some of the results follow.
Response enum: label 1 = active, label 0 = inactive

Illustrative cases are given below, each with its answer.
CNCCC(Oc1ccc(C(F)(F)F)cc1)c1ccccc1 (configuration not stated) = label 0
COc1cc2c(cc1OC)C(=O)c1ccc(OC)c(OC)c1OCC(=O)C2 = label 0
C[C@@H]1O[C@@H](O[C@H]2[C@H](Oc3cc(O)c4c(=O)cc(-c5ccc(O)cc5)oc4c3)O[C@H](CO)[C@@H](O)[C@@H]2O)[C@H](O)[C@H](O)[C@H]1O = label 0
COc1ccc2c(c1)OC/C(=C/c1ccc(OC)c(OC)c1)C2=O = label 1

Answer briefly: the call reported for c1ccc2c(c1)CCCC2C1=NCCN1 (configuration not stated) in this assay.
label 0

Which outcome did this test record for the molecule COc1ccc2c(c1)OC/C(=C\c1ccc(OC)c(O)c1)C2=O ?
label 1

For this molecule, state the assay outcome: NCCc1cnc[nH]1
label 0
